- Assay summary: Hydrolysis half-life (t1/2) in phosphate buffer at pH 7.3
- Assay type: ADME
Result type: half-life (h)
Respond with the bare value in h.

Molecule	half-life / h
Nc1ncnc2c1ncn2C1CCC(COP2(=O)OCc3ccccc3O2)O1 (stereo not drawn)	8.2
Cc1cccc2c1OP(=O)(OCC1CCC(n3cnc4c(N)ncnc43)O1)OC2 (stereo not drawn)	35.1

Here's the next entry for you.
QUERY: Request the reported half-life associated with COc1ccc2c(c1)COP(=O)(OCC1CCC(n3cnc4c(N)ncnc43)O1)O2 (stereo not drawn)
RESULT: 14

----------
- Assay summary: Partition coefficient was measured in 1-octanol/phosphate buffer (pH 6.8)
- Format: physicochemical
Result type: logD
When you answer, write just the number.

// solved cases for logD follow
Molecule	logD
COc1ccc2c(c1)COP(=O)(OCC1CCC(n3cnc4c(N)ncnc43)O1)O2 (centres undefined)	0.61
Cc1cccc2c1OP(=O)(OCC1CCC(n3cnc4c(N)ncnc43)O1)OC2 (centres undefined)	0.91
Nc1ncnc2c1ncn2[C@H]1CC[C@@H](CO)O1	-0.28

Here's the next entry for you.
QUERY: Request the reported logD associated with Nc1ncnc2c1ncn2C1CCC(COP2(=O)OCc3ccccc3O2)O1 (centres undefined)
RESULT: 0.54
